B1: library; a variant is named by its letters at N, in order (parent)
chain: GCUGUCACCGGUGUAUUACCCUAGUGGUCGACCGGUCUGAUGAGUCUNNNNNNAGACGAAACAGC

Variants of: B1
Test Protocol: normalized RNA/DNA level without ligand (relative to sTRSVctl = 100) (log10 (% of sTRSVctl)); ligand: hypoxanthine (xanthine aptamer); higher = less ribozyme self-cleavage, higher mRNA level
Setup Conditions: HEK293T, reporter: mCherry (pCS4076), ligand present: no
Recorded Endpoint: normalized RNA/DNA level without ligand (log10)
Write the value as a bare number.

Data point: GCCAGU ; normalized RNA/DNA level without ligand (log10) = 1.79

Data point: CCAUCU ; normalized RNA/DNA level without ligand (log10) = 1.95

Data point: CUCACU ; normalized RNA/DNA level without ligand (log10) = 1.92

Data point: CCGUGC ; normalized RNA/DNA level without ligand (log10) = 1.54

Data point: GAUUUA ; normalized RNA/DNA level without ligand (log10) = 1.87
